target: CAXII (Homo sapiens, UniProt O43570); test: fluorescent thermal shift assay (FTSA), CAXII; type: binding; settings: converted from Kd_intr, 37 °C, independent of pH
Sequence (O43570 25-354): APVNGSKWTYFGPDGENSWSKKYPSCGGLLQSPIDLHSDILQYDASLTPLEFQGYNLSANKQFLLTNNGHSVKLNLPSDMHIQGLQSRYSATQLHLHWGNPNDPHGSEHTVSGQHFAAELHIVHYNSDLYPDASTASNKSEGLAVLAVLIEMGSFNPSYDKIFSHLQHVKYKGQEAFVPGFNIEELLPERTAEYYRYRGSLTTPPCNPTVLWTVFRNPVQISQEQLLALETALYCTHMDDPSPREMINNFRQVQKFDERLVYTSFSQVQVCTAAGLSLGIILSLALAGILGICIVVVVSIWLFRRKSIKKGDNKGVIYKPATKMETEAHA
// reported ΔGintr CAXII for each item listed

{"columns": ["Molecule", "ΔGintr CAXII"],
 "data": [
  ["COC(=O)c1cc(S(N)(=O)=O)c(Cl)cc1S(=O)(=O)Cc1ccccc1", "-13.2 kcal/mol"],
  ["COC(=O)c1cc(S(N)(=O)=O)c(S(=O)(=O)Cc2ccccc2)cc1Cl", "-11.9 kcal/mol"],
  ["COC(=O)c1cc(S(N)(=O)=O)c(S(=O)(=O)C2CCCCC2)cc1Cl", "-10.5 kcal/mol"],
  ["COC(=O)c1cc(S(N)(=O)=O)c(S(=O)(=O)C2CCCCC2)cc1Br", "≥ -9.94 kcal/mol"],
  ["COC(=O)c1cc(S(N)(=O)=O)c(Cl)cc1S(=O)(=O)c1cccc2ccccc12", "-13 kcal/mol"],
  ["COC(=O)c1cc(S(N)(=O)=O)c(Cl)cc1Cl [Compound 1, Methyl 2,4-dichloro-5-sulfamoyl-benzoate]", "-12.2 kcal/mol"],
  ["COC(=O)c1cc(S(N)(=O)=O)c(Cl)cc1SCc1ccccc1", "-13.1 kcal/mol"],
  ["COC(=O)c1cc(S(N)(=O)=O)c(Br)cc1Br [Compound 2, Methyl 2,4-dibromo-5-sulfamoyl-benzoate]", "-12.3 kcal/mol"],
  ["COC(=O)c1cc(S(N)(=O)=O)c(S(=O)(=O)CCc2ccccc2)cc1Cl", "-10.9 kcal/mol"],
  ["COC(=O)c1cc(S(N)(=O)=O)c(Cl)cc1Sc1ccccc1", "-15.7 kcal/mol"],
  ["COC(=O)c1cc(S(N)(=O)=O)c(Br)cc1Sc1ccccc1", "-14.9 kcal/mol"]
]}

----------
molecular target: CAI (Homo sapiens, UniProt P00915); assay: fluorescent thermal shift assay (FTSA), CAI; type: binding; settings: converted from Kd_obs, 37 °C, pH 7.0, FTSA
Sequence (P00915 whole entry): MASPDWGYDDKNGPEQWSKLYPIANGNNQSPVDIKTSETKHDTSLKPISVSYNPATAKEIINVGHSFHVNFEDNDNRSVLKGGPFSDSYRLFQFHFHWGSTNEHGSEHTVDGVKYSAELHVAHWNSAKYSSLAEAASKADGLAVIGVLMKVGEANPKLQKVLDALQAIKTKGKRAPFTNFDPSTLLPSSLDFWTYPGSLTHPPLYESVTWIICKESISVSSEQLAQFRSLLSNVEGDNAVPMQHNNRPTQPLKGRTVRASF

{"columns": ["Structure Smiles String", "Target Of Assay", "ΔGobs CAI"],
 "data": [
  ["COC(=O)c1cc(S(N)(=O)=O)c(SC2CCCCC2)cc1Cl", "CAI (Homo sapiens, UniProt P00915)", "-28.4 kJ/mol"],
  ["COC(=O)c1cc(S(N)(=O)=O)c(Cl)cc1SC1CCCCC1", "CAI (Homo sapiens, UniProt P00915)", "-38.5 kJ/mol"],
  ["COC(=O)c1cc(S(N)(=O)=O)c(SC2CCCCC2)cc1Br", "CAI (Homo sapiens, UniProt P00915)", "-30.7 kJ/mol"],
  ["COC(=O)c1cc(S(N)(=O)=O)c(Cl)cc1S(=O)(=O)Cc1ccccc1", "CAI (Homo sapiens, UniProt P00915)", "-37.1 kJ/mol"]
]}

----------
target: UniProt P00915; assay: fluorescent thermal shift assay (FTSA), CAI; format: binding; conditions: converted from Kd_obs, 37 °C, pH 7.0, FTSA
// reported ΔGobs CAI for each item listed

{"columns": ["Compound", "Target Of Assay", "Comparison Sign", "ΔGobs CAI, kcal/mol"],
 "data": [
  ["COC(=O)c1cc(S(N)(=O)=O)c(Cl)cc1S(=O)(=O)c1cccc2ccccc12", "UniProt P00915", "=", -9.7],
  ["COC(=O)c1cc(S(N)(=O)=O)c(Br)cc1S(=O)(=O)c1ccccc1 [Compound 10a]", "UniProt P00915", "=", -9.2],
  ["COC(=O)c1cc(S(N)(=O)=O)c(SCc2ccccc2)cc1Cl", "UniProt P00915", "=", -7.31],
  ["COC(=O)c1cc(S(N)(=O)=O)c(Cl)cc1Cl [Compound 1, Methyl 2,4-dichloro-5-sulfamoyl-benzoate]", "UniProt P00915", "=", -6.88],
  ["COC(=O)c1cc(S(N)(=O)=O)c(S(=O)(=O)Cc2ccccc2)cc1Cl", "UniProt P00915", "≥", -5.26],
  ["COC(=O)c1cc(S(N)(=O)=O)c(Cl)cc1Sc1cccc2ccccc12", "UniProt P00915", "=", -6.5],
  ["COC(=O)c1cc(S(N)(=O)=O)c(Cl)cc1SCCc1ccccc1", "UniProt P00915", "=", -7.74],
  ["COC(=O)c1cc(S(N)(=O)=O)c(S(=O)(=O)C2CCCCC2)cc1Cl", "UniProt P00915", "=", -5.66],
  ["COC(=O)c1cc(S(N)(=O)=O)c(Cl)cc1S(=O)(=O)CCc1ccccc1", "UniProt P00915", "=", -9.2],
  ["COC(=O)c1cc(S(N)(=O)=O)c(Br)cc1Br [Compound 2, Methyl 2,4-dibromo-5-sulfamoyl-benzoate]", "UniProt P00915", "=", -6.67],
  ["COC(=O)c1cc(S(N)(=O)=O)c(Cl)cc1Sc1ccccc1", "UniProt P00915", "=", -7.77],
  ["COC(=O)c1cc(S(N)(=O)=O)c(SC2CCCCCCCCCCC2)cc1Cl", "UniProt P00915", "=", -7],
  ["COC(=O)c1cc(S(N)(=O)=O)c(Cl)cc1S(=O)(=O)c1ccccc1", "UniProt P00915", "=", -9.7],
  ["COC(=O)c1cc(S(N)(=O)=O)c(Cl)cc1SCc1ccccc1", "UniProt P00915", "=", -8.08],
  ["COC(=O)c1cc(S(N)(=O)=O)c(S(=O)(=O)C2CCCCC2)cc1Br", "UniProt P00915", "≥", -5.26],
  ["COC(=O)c1cc(S(N)(=O)=O)c(SCCc2ccccc2)cc1Cl", "UniProt P00915", "=", -6.93],
  ["COC(=O)c1cc(S(N)(=O)=O)c(Br)cc1Sc1ccccc1", "UniProt P00915", "=", -7.96],
  ["COC(=O)c1cc(S(N)(=O)=O)c(Cl)cc1S(=O)(=O)C1CCCCC1", "UniProt P00915", "=", -10.2]
]}
